Just for reference, patent US20230014445A1 is where these values come from.

# system_name: human full length PIK3KA H1047R mutant (p110α/p85α complex) (Homo sapiens, UniProt P42336, H1047R)
# Construct: Recombinant, catalytically active human full length PIK3KA Wild-type and H1047R mutant were purchased; 6xHis (N); purchased EMD Millipore Sigma 14-792M
# Sequence (P42336 whole entry H1047R): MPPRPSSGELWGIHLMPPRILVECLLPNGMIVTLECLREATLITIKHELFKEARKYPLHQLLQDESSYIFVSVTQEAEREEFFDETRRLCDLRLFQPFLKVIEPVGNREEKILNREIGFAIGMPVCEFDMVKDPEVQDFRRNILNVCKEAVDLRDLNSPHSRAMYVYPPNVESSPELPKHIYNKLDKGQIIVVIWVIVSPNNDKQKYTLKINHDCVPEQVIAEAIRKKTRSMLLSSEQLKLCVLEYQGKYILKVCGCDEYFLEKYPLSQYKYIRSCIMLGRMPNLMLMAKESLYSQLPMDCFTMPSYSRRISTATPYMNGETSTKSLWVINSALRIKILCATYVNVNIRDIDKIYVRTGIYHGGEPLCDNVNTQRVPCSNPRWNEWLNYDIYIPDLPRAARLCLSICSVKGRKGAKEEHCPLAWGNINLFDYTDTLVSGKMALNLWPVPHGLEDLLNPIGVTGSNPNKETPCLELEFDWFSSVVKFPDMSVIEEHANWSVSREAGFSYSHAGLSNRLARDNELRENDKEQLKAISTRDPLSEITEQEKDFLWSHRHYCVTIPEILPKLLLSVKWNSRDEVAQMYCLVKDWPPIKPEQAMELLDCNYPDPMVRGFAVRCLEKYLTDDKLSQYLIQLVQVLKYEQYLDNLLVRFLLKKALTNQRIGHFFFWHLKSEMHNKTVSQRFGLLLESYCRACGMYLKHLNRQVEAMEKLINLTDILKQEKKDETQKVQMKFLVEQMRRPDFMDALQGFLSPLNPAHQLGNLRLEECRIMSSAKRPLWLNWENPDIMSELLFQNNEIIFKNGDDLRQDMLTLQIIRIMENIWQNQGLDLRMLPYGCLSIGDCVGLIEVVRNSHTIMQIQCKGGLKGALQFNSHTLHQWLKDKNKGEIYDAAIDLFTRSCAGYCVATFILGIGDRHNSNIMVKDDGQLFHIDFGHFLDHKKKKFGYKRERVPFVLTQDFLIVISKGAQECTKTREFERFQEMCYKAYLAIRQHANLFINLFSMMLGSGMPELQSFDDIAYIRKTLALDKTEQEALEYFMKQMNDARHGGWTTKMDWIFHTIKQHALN
# Sequence (P27986 whole entry partner): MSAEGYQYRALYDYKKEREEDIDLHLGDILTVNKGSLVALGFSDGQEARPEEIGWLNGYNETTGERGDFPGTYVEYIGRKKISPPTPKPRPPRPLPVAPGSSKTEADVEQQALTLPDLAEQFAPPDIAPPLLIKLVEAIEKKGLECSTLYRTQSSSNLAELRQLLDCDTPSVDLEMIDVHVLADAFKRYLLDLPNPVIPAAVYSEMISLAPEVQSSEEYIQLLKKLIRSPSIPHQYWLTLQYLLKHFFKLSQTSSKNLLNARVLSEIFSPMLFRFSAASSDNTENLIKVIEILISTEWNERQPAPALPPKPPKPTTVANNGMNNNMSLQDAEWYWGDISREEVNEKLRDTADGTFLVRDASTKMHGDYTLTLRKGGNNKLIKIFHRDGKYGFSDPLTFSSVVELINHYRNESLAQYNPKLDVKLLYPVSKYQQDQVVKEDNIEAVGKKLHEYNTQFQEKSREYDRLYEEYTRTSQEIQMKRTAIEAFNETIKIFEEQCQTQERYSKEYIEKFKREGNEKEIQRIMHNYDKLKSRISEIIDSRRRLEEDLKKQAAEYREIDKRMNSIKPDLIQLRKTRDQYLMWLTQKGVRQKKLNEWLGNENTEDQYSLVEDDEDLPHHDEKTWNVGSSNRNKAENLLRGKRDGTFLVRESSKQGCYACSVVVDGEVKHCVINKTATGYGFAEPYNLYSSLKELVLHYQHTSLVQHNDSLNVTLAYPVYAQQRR
# method: PI3K-Alpha Kinase (PIK3CA) biochemical activity, H1047R mutant (ADP-Glo)
# assay_context: Soy PI lipid substrate, 20 uM ATP
Provide the reported IC50 of each item.

Solved cases (4 shown):
molecule	IC50
Cc1cc(C(C)Nc2ccc(C)nc2C(=O)O)c2oc(-c3cccnc3)c(C)c(=O)c2c1 (single isomer, unassigned; isomer 1) [Example 118]	< 500 nM
COc1cc(-n2cc(-c3cc(=O)c4cc(C)cc(C(C)Nc5ccccc5C(=O)O)c4o3)cn2)ccc1C#N (single isomer, unassigned) [Example 94]	< 500 nM
Cc1cc(C(C)Nc2ccccc2C(=O)O)c2oc(-c3cnn(-c4cccnc4)c3)c(C)c(=O)c2c1 (single isomer, unassigned) [Example 63]	< 500 nM
COc1cccc(-c2cc(=O)c3cc(C)cc(C(C)Nc4ccccc4C(=O)O)c3o2)n1 (stereo not shown) [Example 11]	< 500 nM

Provide reported IC50 for each item, in the same order as listed.
1. Cc1cc(C(C)Nc2cccc(F)c2C(=O)O)c2oc(-c3cnn(-c4ccc(C#N)cc4)c3)cc(=O)c2c1 (stereo not shown) [Example 101]
2. COc1cccc(-c2nnc(-c3cc(=O)c4cc(C)cc(C(C)Nc5ccccc5C(=O)O)c4o3)o2)c1 (single isomer, unassigned; isomer 2) [Example 84]
3. Cc1cc(C(C)Nc2ccccc2C(=O)O)c2oc(-c3ccc(OC(C)C)nc3)cc(=O)c2c1 (stereo not shown) [Example 1]
4. Cc1cc(C(C)Nc2ccccc2C(=O)O)c2oc(-c3cn(-c4ccc(C#N)cc4)cn3)cc(=O)c2c1 (single isomer, unassigned) [Example 103]
5. Cc1cc(C(C)Nc2ccccc2C(=O)O)c2oc(-c3ccc(S(C)(=O)=O)nc3)cc(=O)c2c1 (single isomer, unassigned; isomer 1) [Example 39]
6. COc1ccc(-c2oc3c(C(C)Nc4ccccc4C(=O)O)cc(C)cc3c(=O)c2C)cn1 (single isomer, unassigned) [Example 65]

Given back:
1: < 500 nM; 2: < 500 nM; 3: 500 to 1000 nM; 4: < 500 nM; 5: > 10000 nM; 6: < 500 nM
